Test system: E6SM
Assay: 50% Minimum inhibitory concentration which is required to reduce cytopathogenicity induced by TK-(B2006) strain of HSV-1 virus on human E6SM cells.
Format: functional
ASSAY_READOUT: MIC

// known answers, use as guide
COMPOUND	SYSTEM_NAME	MIC
Cc1cn(C2C/C(=N\O)C(CO)O2)c(=O)[nH]c1=O (stereo not drawn)	E6SM	> 200 µg/mL
CO/N=C1/C[C@H](n2cc(C)c(=O)[nH]c2=O)O[C@@H]1CO.CO/N=C1\C[C@H](n2cc(C)c(=O)[nH]c2=O)O[C@@H]1CO	E6SM	> 200 µg/mL
CC(=O)O/N=C1/C[C@H](n2cc(C)c(=O)[nH]c2=O)O[C@@H]1CO.CC(=O)O/N=C1\C[C@H](n2cc(C)c(=O)[nH]c2=O)O[C@@H]1CO (racemic)	E6SM	> 200 µg/mL
Nc1nc2c(ncn2COC(CO)CO)c(=O)[nH]1 [GANCICLOVIR]	E6SM	5 µg/mL

# input Answer with the recorded MIC for the compound listed here: NC(=O)c1ncn([C@@H]2O[C@H](CO)[C@@H](O)[C@H]2O)n1 [RIBAVIRIN]
# output 150 µg/mL

# input Answer with the recorded MIC for the compound listed here: Cc1cn(C2CC([N+](=O)[O-])C(CO)O2)c(=O)[nH]c1=O (stereo not drawn)
# output > 200 µg/mL

# input Answer with the recorded MIC for the compound listed here: Cc1cn(C2C/C(=[N+](/[O-])O)C(CO)O2)c(=O)[nH]c1=O (stereo not drawn)
# output > 200 µg/mL

# input Answer with the recorded MIC for the compound listed here: O=c1[nH]c(=O)n([C@H]2C[C@H](O)[C@@H](CO)O2)cc1/C=C/Br [BRIVUDINE]
# output 10 µg/mL

Origin of measurements: ChEMBL document CHEMBL1130413
